Let's look at some binders and their measured conversion of 0708-30 by PAD2, 10 µM inhibitor.
# SYSTEM: recombinant human PAD2 (human, UniProt Q9Y2J8 1-665)
# Sequence (Q9Y2J8 whole entry): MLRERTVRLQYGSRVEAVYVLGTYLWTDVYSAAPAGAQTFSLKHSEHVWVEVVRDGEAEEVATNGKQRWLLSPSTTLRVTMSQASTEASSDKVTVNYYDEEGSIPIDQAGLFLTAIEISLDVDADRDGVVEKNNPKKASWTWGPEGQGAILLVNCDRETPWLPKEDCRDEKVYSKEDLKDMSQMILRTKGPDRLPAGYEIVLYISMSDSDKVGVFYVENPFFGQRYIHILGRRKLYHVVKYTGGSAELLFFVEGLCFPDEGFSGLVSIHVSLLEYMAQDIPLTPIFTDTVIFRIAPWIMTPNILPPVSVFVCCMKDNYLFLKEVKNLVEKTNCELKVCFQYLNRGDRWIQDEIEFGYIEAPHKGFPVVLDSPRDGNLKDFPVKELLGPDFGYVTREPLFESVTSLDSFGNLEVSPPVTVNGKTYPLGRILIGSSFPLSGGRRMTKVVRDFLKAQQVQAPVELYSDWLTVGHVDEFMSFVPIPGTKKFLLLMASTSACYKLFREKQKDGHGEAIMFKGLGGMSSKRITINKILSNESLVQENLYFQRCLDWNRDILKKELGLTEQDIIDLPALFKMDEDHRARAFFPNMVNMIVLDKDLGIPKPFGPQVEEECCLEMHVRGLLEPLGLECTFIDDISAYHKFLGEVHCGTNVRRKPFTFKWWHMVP
# TEST_SUMMARY: cell-based or functional assay
Numbered stars: 1 amine (or outer) side, 2 acyl side, 3 side chain; on linkers, the order of the positions; unused ones are H or OH. Square brackets hold non-standard residues; d marks the D form. Orn(CA) = ornithine chloroamidine, O(CA), N=C(CCl)NCCC[C@H](N[*:1])C(=O)[*:2]; Orn(fluoroacetimidoyl) = N=C(CF)NCCC[C@H](N)C(=O)O
PARAMETER_MEASURED: conversion of 0708-30 by PAD2, 10 µM inhibitor (%)

1. Ac-DSKKHD[Orn(fluoroacetimidoyl)]DFLYSD-NH2 (SMILES CC(=O)N[C@@H](CC(=O)O)C(=O)N[C@@H](CO)C(=O)N[C@@H](CCCCN)C(=O)N[C@@H](CCCCN)C(=O)N[C@@H](Cc1c[nH]cn1)C(=O)N[C@@H](CC(=O)O)C(=O)N[C@@H](CCCNC(=N)CF)C(=O)N[C@@H](CC(=O)O)C(=O)N[C@@H](Cc1ccccc1)C(=O)N[C@@H](CC(C)C)C(=O)N[C@@H](Cc1ccc(O)cc1)C(=O)N[C@@H](CO)C(=O)N[C@@H](CC(=O)O)C(N)=O) [0741-06FA]
73
2. Ac-DSHKFD[Orn(CA)]DFIYSD-NH2 (SMILES CC[C@H](C)[C@H](NC(=O)[C@H](Cc1ccccc1)NC(=O)[C@H](CC(=O)O)NC(=O)[C@H](CCCNC(=N)CCl)NC(=O)[C@H](CC(=O)O)NC(=O)[C@H](Cc1ccccc1)NC(=O)[C@H](CCCCN)NC(=O)[C@H](Cc1c[nH]cn1)NC(=O)[C@H](CO)NC(=O)[C@H](CC(=O)O)NC(C)=O)C(=O)N[C@@H](Cc1ccc(O)cc1)C(=O)N[C@@H](CO)C(=O)N[C@@H](CC(=O)O)C(N)=O) [0741-05CA]
62
